System: 786-O
Assay: Euclidean distance of Cell Painting phenotypic profile (signed KS, 77 features) to DMSO centroid (dimensionless distance); 5 or 10 uM (library dependent); higher = stronger phenotypic change vs DMSO (phenoactivity)
Conditions: 48 h
Counter-ions that a name gives are not always drawn.
Measurement name: Euclidean distance
Just the number.

Reported Euclidean distance ( Cc1cc(/C=C/C#N)cc(C)c1Nc1ccnc(Nc2ccc(C#N)cc2)n1 ) = 1.85

For Cc1nnc(NS(=O)(=O)c2ccc(N)cc2)s1 the compound record lists Euclidean distance as 1.54

Item: CO[C@H]1/C=C\C=C(/C)C(=O)NC2=CC(=O)C(NCCN(C)C)=C(C[C@@H](C)C[C@H](OC)[C@H](O)[C@@H](C)/C=C(\C)[C@@H]1OC(N)=O)C2=O | Euclidean distance: 2.76

// field: Euclidean distance; key: NC(=O)c1ccc(OCCCN2CC3CCCC3C2)cc1 (stereo not drawn) ; value = 1.32

Memo: NC(=O)Cc1cccc(C(=O)c2ccccc2)c1N , reported Euclidean distance: 1.03

More entries:
Entry CCCCc1oc2ccccc2c1C(=O)c1cc(I)c(OCCN(CC)CC)c(I)c1 [Amiodarone HCl] , Euclidean distance reported as 1.56

Kindly note the recorded Euclidean distance for CO/N=C(\C(=O)N[C@@H]1C(=O)N2C(C(=O)O)=C(COC(C)=O)CS[C@H]12)c1csc(N)n1 [Cefotaxime] , which is 1.26

# compound CCc1c(O)cc(O)c(C(=O)c2ccc(OCCN3CCOCC3)c(OC)c2)c1CC(=O)N(CCOC)CCOC ; its Euclidean distance = 2.14
